- Test system: Proteus vulgaris
- Assay Remarks: Antimicrobial activity against Proteus vulgaris NCIM 2027 at 1000 ug/disk after 24 hrs by disk diffusion method
- Assay type: functional
The source made the active and inactive calls. The calls are words filed in the database; no cut-off is given here.

>  <Molecule>
CC1(C)CC(=O)C2=C(C1)Nc1c(ccc3ccccc13)C2c1ccccc1O (stereo not drawn)

>  <diameter of the inhibition zone (DIZ)>
inactive

$$$$
>  <Molecule>
CC1(C)CC(=O)C2=C(C1)Nc1c(ccc3ccccc13)C2c1ccccc1 (stereo not drawn)

>  <diameter of the inhibition zone (DIZ)>
inactive

$$$$
>  <Molecule>
CC1(C)CC(=O)C2=C(C1)Nc1c(ccc3ccccc13)C2c1ccccc1Cl (stereo not drawn)

>  <diameter of the inhibition zone (DIZ)>
inactive

$$$$
>  <Molecule>
O=C1CCCC2=C1C(c1ccccc1O)c1ccc3ccccc3c1N2 (stereo not drawn)

>  <diameter of the inhibition zone (DIZ)>
inactive

$$$$
>  <Molecule>
O=C1CCCC2=C1C(c1ccccc1Cl)c1ccc3ccccc3c1N2 (stereo not drawn)

>  <diameter of the inhibition zone (DIZ)>
inactive

$$$$
>  <Molecule>
O=C1CCCC2=C1C(c1cccc(Cl)c1)c1ccc3ccccc3c1N2 (stereo not drawn)

>  <diameter of the inhibition zone (DIZ)>
inactive

$$$$
>  <Molecule>
CC1(C)CC(=O)C2=C(C1)Nc1c(ccc3ccccc13)C2c1cccc(Cl)c1 (stereo not drawn)

>  <diameter of the inhibition zone (DIZ)>
inactive

$$$$
>  <Molecule>
O=C1CCCC2=C1C(c1ccccc1)c1ccc3ccccc3c1N2 (stereo not drawn)

>  <diameter of the inhibition zone (DIZ)>
inactive

$$$$

###

List of MIC values.
- Test system: Bacillus cereus
- Assay Remarks: Antimicrobial activity against Bacillus cereus NCIM 2155 after 24 hrs by serial dilution method
- Assay type: functional
- Measurement Context: NCIM 2155, 24 h

>  <Compound>
O=C1CCCC2=C1C(c1cccc([N+](=O)[O-])c1)c1ccc3ccccc3c1N2 (stereo unspecified)

>  <MIC>
62.5 µg/mL

$$$$
>  <Compound>
O=C1CCCC2=C1C(c1ccccc1)c1ccc3ccccc3c1N2 (stereo unspecified)

>  <MIC>
125 µg/mL

$$$$
>  <Compound>
O=C1CCCC2=C1C(c1ccccc1O)c1ccc3ccccc3c1N2 (stereo unspecified)

>  <MIC>
125 µg/mL

$$$$
>  <Compound>
CC1(C)CC(=O)C2=C(C1)Nc1c(ccc3ccccc13)C2c1ccccc1Cl (stereo unspecified)

>  <MIC>
31.2 µg/mL

$$$$
>  <Compound>
CC1(C)CC(=O)C2=C(C1)Nc1c(ccc3ccccc13)C2c1ccccc1 (stereo unspecified)

>  <MIC>
31.2 µg/mL

$$$$
>  <Compound>
O=C1CCCC2=C1C(c1ccc(Cl)cc1)c1ccc3ccccc3c1N2 (stereo unspecified)

>  <MIC>
15.6 µg/mL

$$$$
>  <Compound>
CC1(C)CC(=O)C2=C(C1)Nc1c(ccc3ccccc13)C2c1cccc(Cl)c1 (stereo unspecified)

>  <MIC>
62.5 µg/mL

$$$$
>  <Compound>
CC1(C)CC(=O)C2=C(C1)Nc1c(ccc3ccccc13)C2c1ccccc1O (stereo unspecified)

>  <MIC>
62.5 µg/mL

$$$$
>  <Compound>
CC1(C)CC(=O)C2=C(C1)Nc1c(ccc3ccccc13)C2c1cccc([N+](=O)[O-])c1 (stereo unspecified)

>  <MIC>
15.6 µg/mL

$$$$
>  <Compound>
CC1(C)CC(=O)C2=C(C1)Nc1c(ccc3ccccc13)C2c1ccc(Cl)cc1 (stereo unspecified)

>  <MIC>
15.6 µg/mL

$$$$
>  <Compound>
CC1(C)CC(=O)C2=C(C1)Nc1c(ccc3ccccc13)C2c1ccc(O)cc1 (stereo unspecified)

>  <MIC>
31.2 µg/mL

$$$$

// data source = ChEMBL document CHEMBL1138564
